System: 885512-296-R-J2-PDC complex spheroid viability;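 further: spheroids exposed to the compounds for one week; percent of tumor spheroid viability relative to DMSO vehicle control wells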
Assay: Anticancer human tumor 885512-296-R-J2-PDC patient-derived breast carcinoma cell line growth inhibition [GQUAD]
Conditions: second compound 10 µM; first compound 10 µM; hits give low values
Quantity measured: viability, T/C (%)
Answers are plain numbers, in %.

The following compounds have reported results that may help.
COc1cc(C2c3cc4c(cc3C(OC3OC5COC(C)OC5C(O)C3O)C3COC(=O)C23)OCO4)cc(OC)c1O (stereo unspecified) + Cc1cnc(CNC(=O)c2c(=O)c3ccc(N4CCCN(C)CC4)nc3n3c2sc2ccccc23)cn1 :: 0.18
CC(=O)O[C@H]1C(=O)[C@@]2(C)[C@H]([C@H](OC(=O)c3ccccc3)[C@]3(O)C[C@H](OC(=O)[C@H](O)[C@@H](NC(=O)c4ccccc4)c4ccccc4)C(C)=C1C3(C)C)[C@]1(OC(C)=O)CO[C@@H]1C[C@@H]2O + Cc1[nH]c2ccc(F)cc2c1-c1nc2c3cccnc3c3ncccc3c2[nH]1 :: 1.07
O=c1[nH]cc(F)c(=O)[nH]1 + Cc1cnc(CNC(=O)c2c(=O)c3ccc(N4CCCN(C)CC4)nc3n3c2sc2ccccc23)cn1 :: 0.16
CCCS(=O)(=O)Nc1ccc(F)c(C(=O)c2c[nH]c3ncc(-c4ccc(Cl)cc4)cc23)c1F + Cc1[nH]c2ccc(F)cc2c1-c1nc2c3cccnc3c3ncccc3c2[nH]1 :: 3.37
CC1COCCN1c1cc(C2(O)CC3CCC(C2)O3)c2cnn(-c3ccn[nH]3)c2n1 (stereo unspecified) + CN(C)c1ccc(Nc2c3ccc(NC(=O)CCN4CCCC4)cc3nc3cc(NC(=O)CCN4CCCC4)ccc23)cc1 :: 1.22
CC1COCCN1c1cc(C2(O)CC3CCC(C2)O3)c2cnn(-c3ccn[nH]3)c2n1 (stereo unspecified) + Cc1cnc(CNC(=O)c2c(=O)c3ccc(N4CCCN(C)CC4)nc3n3c2sc2ccccc23)cn1 :: 0.12
CC1COCCN1c1cc(C2(S(C)(=N)=O)CC2)nc(-c2ccnc3[nH]ccc23)n1 (stereo unspecified) + CN(C)c1ccc(Nc2c3ccc(NC(=O)CCN4CCCC4)cc3nc3cc(NC(=O)CCN4CCCC4)ccc23)cc1 :: 4.27
CCCS(=O)(=O)Nc1ccc(F)c(C(=O)c2c[nH]c3ncc(-c4ccc(Cl)cc4)cc23)c1F + CN(C)c1ccc(Nc2c3ccc(NC(=O)CCN4CCCC4)cc3nc3cc(NC(=O)CCN4CCCC4)ccc23)cc1 :: 1.3
Nc1ccn(C2OC(CO)C(O)C2(F)F)c(=O)n1 (stereo unspecified) + Cc1cnc(CNC(=O)c2c(=O)c3ccc(N4CCCN(C)CC4)nc3n3c2sc2ccccc23)cn1 :: 0.16
Cc1cccc(N(C)C(=O)C2C(O)CCN2c2nc(C)cc(C(F)(F)F)c2C#N)c1 (stereo unspecified) + CN(C)c1ccc(Nc2c3ccc(NC(=O)CCN4CCCC4)cc3nc3cc(NC(=O)CCN4CCCC4)ccc23)cc1 :: 5.88

Now let's try a different one.
Returns the measured viability, T/C for the input compound. Input: C=CCn1c(=O)c2cnc(Nc3ccc(N4CCN(C)CC4)cc3)nc2n1-c1cccc(C(C)(C)O)n1 + Cc1[nH]c2ccc(F)cc2c1-c1nc2c3cccnc3c3ncccc3c2[nH]1
1.03
